Conditions: human, serum;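 also: human clinical chemistry: moderate when serum ALT or AST reaches 6× upper normal limit or alkaline phosphatase 1.7×, value counts indexed literature references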
Hepatotoxicity (moderate) values by entry
Reported endpoint: Hepatotoxicity (moderate)

[[record]]
molecule = "CN1CCC[C@@H]1CCO[C@](C)(c1ccccc1)c1ccc(Cl)cc1"
assay_value = 1

[[record]]
molecule = "COc1cc([C@@H]2c3cc4c(cc3[C@@H](O[C@@H]3O[C@@H]5CO[C@@H](c6cccs6)O[C@H]5[C@H](O)[C@H]3O)[C@H]3COC(=O)[C@H]23)OCO4)cc(OC)c1O [TENIPOSIDE]"
assay_value = 4

[[record]]
molecule = "COc1cc(N)c(Cl)cc1C(=O)NC1CCN(CCCOc2ccc(F)cc2)CC1OC (centres undefined) [CISAPRIDE]"
assay_value = 2

[[record]]
molecule = "COc1ccc(CN2CCNCC2)c(OC)c1OC"
assay_value = 0

[[record]]
molecule = "COC1=C(C(=O)O)N2C(=O)[C@@H](NC(=O)[C@H](N)C3=CCC=CC3)[C@H]2SC1"
assay_value = 1

[[record]]
molecule = "CCC1=C[C@@H]2CN(C1)Cc1c([nH]c3ccccc13)[C@@](C(=O)OC)(c1cc3c(cc1OC)N(C)[C@H]1[C@@](O)(C(=O)OC)[C@H](OC(C)=O)[C@]4(CC)C=CCN5CC[C@]31[C@@H]54)C2"
assay_value = 6

[[record]]
molecule = "Nc1ccc(S(=O)(=O)Nc2nccs2)cc1"
assay_value = 1

[[record]]
molecule = "C1CNCCN1"
assay_value = 0

[[record]]
molecule = "CC(C)c1nc(CN(C)C(=O)N[C@H](C(=O)N[C@@H](Cc2ccccc2)C[C@H](O)[C@H](Cc2ccccc2)NC(=O)OCc2cncs2)C(C)C)cs1"
assay_value = 10

[[record]]
molecule = "O=C(OCC(COC(=O)c1cccnc1)(COC(=O)c1cccnc1)COC(=O)c1cccnc1)c1cccnc1"
assay_value = 1

[[record]]
molecule = "CN1C(=O)CCS(=O)(=O)C1c1ccc(Cl)cc1 (centres undefined)"
assay_value = 0

[[record]]
molecule = "CC(=O)N[C@@H]1[C@H](Oc2c3cc4cc2Oc2ccc(cc2Cl)[C@@H](O[C@@H]2O[C@@H](CO)[C@@H](O)[C@H](O)[C@@H]2NC(C)=O)[C@@H]2NC(=O)[C@H](NC(=O)[C@@H]4NC(=O)[C@H]4NC(=O)[C@@H](Cc5ccc(c(Cl)c5)O3)NC(=O)[C@H](N)c3ccc(O)c(c3)Oc3cc(O)cc4c3)c3ccc(O)c(c3)-c3c(O[C@H]4O[C@H](CO)[C@@H](O)[C@@H](O)[C@@H]4O)cc(O)cc3[C@@H](C(=O)O)NC2=O)O[C@@H](CO)[C@@H](O)[C@@H]1O"
assay_value = 36

[[record]]
molecule = "C[C@H]1CC(=O)C[C@@H]2CC[C@H]3[C@@H]4CC[C@H](O)[C@@]4(C)CC[C@@H]3[C@]21C"
assay_value = 0

[[record]]
molecule = "CCOC(=O)Nc1ccc(NCc2ccc(F)cc2)nc1N"
assay_value = 2

[[record]]
molecule = "CC(=O)[C@H]1CC[C@H]2[C@@H]3CC[C@H]4C[C@H](O)CC[C@]4(C)[C@H]3C(=O)C[C@]12C.C[C@]12CC[C@@H](O)C[C@@H]1CC[C@H]1[C@@H]3CC[C@H](C(=O)CO)[C@@]3(C)CC(=O)[C@@H]12"
assay_value = 1

[[record]]
molecule = "CC(=O)N[C@H]1[C@@H](O[C@H]2[C@H](O)[C@@H](O)[C@H](O[C@H]3[C@H](CS(=O)(=O)O)[C@@H](OS(=O)(=O)O)[C@@H](O[C@H]4[C@H](O)[C@@H](OS(=O)(=O)O)C(O)O[C@H]4C(=O)O)O[C@@H]3O)O[C@@H]2C(=O)O)O[C@H](COS(=O)(=O)O)[C@@H](O)[C@@H]1O (some centres undefined) [SODIUM HEPARIN]"
assay_value = 20

[[record]]
molecule = "CC(C)NCC(O)COc1cccc2ccccc12 (centres undefined)"
assay_value = 5

[[record]]
molecule = "CO/N=C(\\C(=O)N[C@@H]1C(=O)N2C(C(=O)O)=C(COC(C)=O)CS[C@H]12)c1csc(N)n1"
assay_value = 33

[[record]]
molecule = "CC[C@H](C)[C@H]1NC(=O)[C@@H](NC(=O)[C@@H](CC(C)C)N(C)C(=O)[C@@H]2CCCN2C(=O)C(C)O)[C@@H](C)OC(=O)[C@H](Cc2ccc(OC)cc2)N(C)C(=O)[C@@H]2CCCN2C(=O)[C@H](CC(C)C)NC(=O)[C@@H](C)C(=O)[C@H](C(C)C)OC(=O)C[C@@H]1O (some centres undefined)"
assay_value = 3

[[record]]
molecule = "CC(=O)CCC1C(=O)N(c2ccccc2)N(c2ccccc2)C1=O"
assay_value = 1

[[record]]
molecule = "Nc1cc([As]2[As](c3ccc(O)c(N)c3)[As](c3ccc(O)c(N)c3)[As](c3ccc(O)c(N)c3)[As]2c2ccc(O)c(N)c2)ccc1O.Nc1cc([As]2[As](c3ccc(O)c(N)c3)[As]2c2ccc(O)c(N)c2)ccc1O (centres undefined)"
assay_value = 0

[[record]]
molecule = "NS(=O)(=O)c1cc2c(cc1Cl)NC(C(Cl)Cl)NS2(=O)=O (centres undefined) [TRICHLORMETHIAZIDE]"
assay_value = 1

[[record]]
molecule = "CCCN(CCC)C(=O)Cc1c(-c2ccc(Cl)cc2)nc2ccc(Cl)cn12"
assay_value = 0

[[record]]
molecule = "c1ccc([C@H]2CN3CCSC3=N2)cc1"
assay_value = 11

